molecular target: HIPK1 (Homo sapiens, UniProt Q86Z02); construct: purchased Carna Biosciences; experiment: Kinase panel profiling at 1 µmol/L (mobility shift assay, Carna); assay type: biochemical; conditions: 1 µmol/L of BTK inhibitor
Sequence (Q86Z02 whole entry): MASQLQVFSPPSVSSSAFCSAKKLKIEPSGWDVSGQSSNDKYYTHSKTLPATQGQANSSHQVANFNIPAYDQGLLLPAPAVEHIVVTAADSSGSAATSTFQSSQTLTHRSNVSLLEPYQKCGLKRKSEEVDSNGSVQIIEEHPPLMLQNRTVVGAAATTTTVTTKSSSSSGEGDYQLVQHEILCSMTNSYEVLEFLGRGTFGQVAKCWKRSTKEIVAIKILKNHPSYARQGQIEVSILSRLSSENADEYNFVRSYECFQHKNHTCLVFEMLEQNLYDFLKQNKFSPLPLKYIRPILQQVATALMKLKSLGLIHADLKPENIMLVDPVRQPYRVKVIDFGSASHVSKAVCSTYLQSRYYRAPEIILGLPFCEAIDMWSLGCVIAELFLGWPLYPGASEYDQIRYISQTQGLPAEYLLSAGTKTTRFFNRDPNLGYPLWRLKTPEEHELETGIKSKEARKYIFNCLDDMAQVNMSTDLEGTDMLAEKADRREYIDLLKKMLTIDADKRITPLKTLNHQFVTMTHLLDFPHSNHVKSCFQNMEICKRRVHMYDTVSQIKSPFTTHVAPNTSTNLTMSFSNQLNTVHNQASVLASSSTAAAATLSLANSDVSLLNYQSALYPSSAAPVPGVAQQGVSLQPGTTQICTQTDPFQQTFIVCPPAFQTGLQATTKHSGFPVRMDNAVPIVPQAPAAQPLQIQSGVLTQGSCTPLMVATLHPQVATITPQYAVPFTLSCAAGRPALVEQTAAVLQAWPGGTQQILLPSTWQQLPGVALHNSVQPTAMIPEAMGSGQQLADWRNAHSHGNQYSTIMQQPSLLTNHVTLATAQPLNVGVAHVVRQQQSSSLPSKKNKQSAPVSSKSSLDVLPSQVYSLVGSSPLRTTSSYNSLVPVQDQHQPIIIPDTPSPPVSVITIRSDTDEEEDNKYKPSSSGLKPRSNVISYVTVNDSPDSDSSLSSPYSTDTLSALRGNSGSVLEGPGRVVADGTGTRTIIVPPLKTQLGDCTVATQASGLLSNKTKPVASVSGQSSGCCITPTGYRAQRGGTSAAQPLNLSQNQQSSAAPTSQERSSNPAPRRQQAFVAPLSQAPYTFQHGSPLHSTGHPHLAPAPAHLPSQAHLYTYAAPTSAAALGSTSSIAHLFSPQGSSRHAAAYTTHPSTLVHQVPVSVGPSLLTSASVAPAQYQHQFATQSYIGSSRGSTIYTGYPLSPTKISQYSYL
MEASURE: Percentage inhibition of kinase enzyme activity (%)
Write the number in % without appending the unit.

Req: May I ask what Percentage inhibition of kinase enzyme activity has been recorded for "O=C(c1ccc(Oc2ccccc2)cc1Cl)c1c[nH]c2ncnc(N[C@@H]3CC[C@@H](CO)OC3)c12" ?
Resp: 2.16

Req: May I ask what Percentage inhibition of kinase enzyme activity has been recorded for "CC#CC(=O)N1CCC[C@H]1c1nc(-c2ccc(C(=O)Nc3ccccn3)cc2)c2c(N)nccn12" ?
Resp: -14.56

Req: May I ask what Percentage inhibition of kinase enzyme activity has been recorded for "C=CC(=O)N1CCC[C@@H](n2nc(-c3ccc(Oc4ccccc4)cc3)c3c(N)ncnc32)C1" ?
Resp: 4.26

Req: May I ask what Percentage inhibition of kinase enzyme activity has been recorded for "COc1ccc(F)cc1C(=O)NCc1ccc(-c2nn([C@@H](C)C(F)(F)F)c(N)c2C(N)=O)cc1" ?
Resp: 2.97

====

target: EPHB1 (Homo sapiens); construct: purchased Carna Biosciences; assay: Kinase panel profiling at 1 µmol/L (mobility shift assay, Carna); type: biochemical; conditions: 1 µmol/L of BTK inhibitor
Sequence (P54762 18-984): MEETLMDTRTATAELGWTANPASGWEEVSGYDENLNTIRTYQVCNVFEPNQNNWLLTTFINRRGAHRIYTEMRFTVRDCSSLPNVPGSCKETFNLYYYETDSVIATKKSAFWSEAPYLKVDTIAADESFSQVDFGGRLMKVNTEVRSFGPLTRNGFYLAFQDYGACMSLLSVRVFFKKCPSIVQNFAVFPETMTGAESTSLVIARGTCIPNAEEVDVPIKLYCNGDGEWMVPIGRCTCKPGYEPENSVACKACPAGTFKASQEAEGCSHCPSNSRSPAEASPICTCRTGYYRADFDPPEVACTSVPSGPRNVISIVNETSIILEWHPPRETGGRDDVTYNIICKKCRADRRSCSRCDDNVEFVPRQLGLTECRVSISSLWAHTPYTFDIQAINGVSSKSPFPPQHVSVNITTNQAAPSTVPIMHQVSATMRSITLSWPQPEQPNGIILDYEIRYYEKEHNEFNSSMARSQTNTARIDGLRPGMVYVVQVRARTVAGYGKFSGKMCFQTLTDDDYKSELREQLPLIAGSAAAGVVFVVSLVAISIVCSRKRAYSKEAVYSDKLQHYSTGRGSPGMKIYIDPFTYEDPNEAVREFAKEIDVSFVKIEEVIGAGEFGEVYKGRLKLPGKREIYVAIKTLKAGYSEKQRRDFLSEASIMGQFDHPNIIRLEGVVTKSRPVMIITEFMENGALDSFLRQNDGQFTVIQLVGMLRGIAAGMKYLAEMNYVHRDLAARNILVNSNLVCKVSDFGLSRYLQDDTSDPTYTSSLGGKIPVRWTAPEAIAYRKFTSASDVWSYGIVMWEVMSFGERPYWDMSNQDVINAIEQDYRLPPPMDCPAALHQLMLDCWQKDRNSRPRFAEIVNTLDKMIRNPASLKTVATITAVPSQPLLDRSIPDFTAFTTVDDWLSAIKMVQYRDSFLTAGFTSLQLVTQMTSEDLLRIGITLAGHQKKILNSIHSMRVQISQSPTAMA
MEASURE: Percentage inhibition of kinase enzyme activity (%)
Write the number in % without appending the unit.

Req: May I ask what Percentage inhibition of kinase enzyme activity has been recorded for "C=CC(=O)N1CCC[C@@H](n2nc(-c3ccc(Oc4ccccc4)cc3)c3c(N)ncnc32)C1" ?
Resp: 11.81

Req: May I ask what Percentage inhibition of kinase enzyme activity has been recorded for "CC#CC(=O)N1CCC[C@H]1c1nc(-c2ccc(C(=O)Nc3ccccn3)cc2)c2c(N)nccn12" ?
Resp: -1.40

Req: May I ask what Percentage inhibition of kinase enzyme activity has been recorded for "O=C(c1ccc(Oc2ccccc2)cc1Cl)c1c[nH]c2ncnc(N[C@@H]3CC[C@@H](CO)OC3)c12" ?
Resp: 63.64

Req: May I ask what Percentage inhibition of kinase enzyme activity has been recorded for "COc1ccc(F)cc1C(=O)NCc1ccc(-c2nn([C@@H](C)C(F)(F)F)c(N)c2C(N)=O)cc1" ?
Resp: 2.51

Req: May I ask what Percentage inhibition of kinase enzyme activity has been recorded for "C=CC(=O)N1CCC([C@@H]2CCNc3c(C(N)=O)c(-c4ccc(Oc5ccccc5)cc4)nn32)CC1" ?
Resp: -1.07

====

molecular target: PLK2 (Homo sapiens, UniProt Q9NYY3); construct: purchased Carna Biosciences; assay: Kinase panel profiling at 1 µmol/L (mobility shift assay, Carna); type: biochemical; settings: 1 µmol/L of BTK inhibitor
Sequence (Q9NYY3 whole entry): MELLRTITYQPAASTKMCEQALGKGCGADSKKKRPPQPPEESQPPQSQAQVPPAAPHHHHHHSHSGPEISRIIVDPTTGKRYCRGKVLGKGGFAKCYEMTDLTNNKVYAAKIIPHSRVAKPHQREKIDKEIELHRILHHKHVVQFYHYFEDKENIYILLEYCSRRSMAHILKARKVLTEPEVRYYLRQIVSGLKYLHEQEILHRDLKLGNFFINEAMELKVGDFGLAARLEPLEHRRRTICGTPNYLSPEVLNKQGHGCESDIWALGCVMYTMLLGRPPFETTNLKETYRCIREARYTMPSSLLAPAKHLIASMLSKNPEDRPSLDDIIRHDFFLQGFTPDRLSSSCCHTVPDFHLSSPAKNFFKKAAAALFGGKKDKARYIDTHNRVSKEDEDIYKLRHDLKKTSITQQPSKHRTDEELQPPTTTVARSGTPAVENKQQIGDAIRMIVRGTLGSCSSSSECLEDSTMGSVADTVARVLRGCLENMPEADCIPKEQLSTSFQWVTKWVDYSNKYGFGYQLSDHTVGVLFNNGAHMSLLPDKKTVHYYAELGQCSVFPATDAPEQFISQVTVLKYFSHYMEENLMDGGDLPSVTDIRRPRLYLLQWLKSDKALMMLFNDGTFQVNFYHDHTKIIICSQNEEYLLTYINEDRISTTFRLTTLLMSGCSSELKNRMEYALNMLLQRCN
MEASURE: Percentage inhibition of kinase enzyme activity (%)
Write the number in % without appending the unit.

Req: Notebook: pull reported Percentage inhibition of kinase enzyme activity for PLK2 (Homo sapiens, UniProt Q9NYY3), entry "C=CC(=O)N1CCC[C@@H](n2nc(-c3ccc(Oc4ccccc4)cc3)c3c(N)ncnc32)C1"
Resp: 1.72

Req: Notebook: pull reported Percentage inhibition of kinase enzyme activity for PLK2 (Homo sapiens, UniProt Q9NYY3), entry "CC#CC(=O)N1CCC[C@H]1c1nc(-c2ccc(C(=O)Nc3ccccn3)cc2)c2c(N)nccn12"
Resp: 2.47

Req: Notebook: pull reported Percentage inhibition of kinase enzyme activity for PLK2 (Homo sapiens, UniProt Q9NYY3), entry "O=C(c1ccc(Oc2ccccc2)cc1Cl)c1c[nH]c2ncnc(N[C@@H]3CC[C@@H](CO)OC3)c12"
Resp: 3.06

Req: Notebook: pull reported Percentage inhibition of kinase enzyme activity for PLK2 (Homo sapiens, UniProt Q9NYY3), entry "COc1ccc(F)cc1C(=O)NCc1ccc(-c2nn([C@@H](C)C(F)(F)F)c(N)c2C(N)=O)cc1"
Resp: 2.89

====

Target: AurA (Homo sapiens, UniProt O14965)
Construct: purchased Carna Biosciences
Sequence (O14965 1-403): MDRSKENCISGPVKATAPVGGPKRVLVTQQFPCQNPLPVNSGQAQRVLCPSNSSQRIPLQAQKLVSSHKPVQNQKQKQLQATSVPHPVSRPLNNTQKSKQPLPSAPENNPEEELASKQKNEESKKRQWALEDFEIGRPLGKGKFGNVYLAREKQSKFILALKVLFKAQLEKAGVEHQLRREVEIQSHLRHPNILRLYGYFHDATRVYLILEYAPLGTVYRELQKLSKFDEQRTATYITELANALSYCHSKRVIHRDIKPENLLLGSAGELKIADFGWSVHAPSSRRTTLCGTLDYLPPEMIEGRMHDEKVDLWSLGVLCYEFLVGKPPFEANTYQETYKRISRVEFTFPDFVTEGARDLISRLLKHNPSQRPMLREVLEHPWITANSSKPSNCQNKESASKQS
Test: Kinase panel profiling at 1 µmol/L (mobility shift assay, Carna)
Format: biochemical
Conditions: 1 µmol/L of BTK inhibitor
MEASURE: Percentage inhibition of kinase enzyme activity (%)
Write the number in % without appending the unit.

Req: May I ask what Percentage inhibition of kinase enzyme activity has been recorded for "CC#CC(=O)N1CCC[C@H]1c1nc(-c2ccc(C(=O)Nc3ccccn3)cc2)c2c(N)nccn12" ?
Resp: 2.34

Req: May I ask what Percentage inhibition of kinase enzyme activity has been recorded for "O=C(c1ccc(Oc2ccccc2)cc1Cl)c1c[nH]c2ncnc(N[C@@H]3CC[C@@H](CO)OC3)c12" ?
Resp: 77.82

Req: May I ask what Percentage inhibition of kinase enzyme activity has been recorded for "C=CC(=O)N1CCC[C@@H](n2nc(-c3ccc(Oc4ccccc4)cc3)c3c(N)ncnc32)C1" ?
Resp: 29.84

Req: May I ask what Percentage inhibition of kinase enzyme activity has been recorded for "COc1ccc(F)cc1C(=O)NCc1ccc(-c2nn([C@@H](C)C(F)(F)F)c(N)c2C(N)=O)cc1" ?
Resp: 27.17

====

test system: A-549; test: Cell viability assay (ATPlite); type: cell-based; conditions: Homo sapiens, A549; A-549 cell line, 72 hours incubation
MEASURE: pIC50
Field pIC50 (float): negative decimal logarithm of the concentration in molar.

Req: May I ask what pIC50 has been recorded for O=C(c1ccc(Oc2ccccc2)cc1Cl)c1c[nH]c2ncnc(N[C@@H]3CC[C@@H](CO)OC3)c12 [nemtabrutinib] ?
Resp: 5.14

====

target: ERK1 (Homo sapiens)
Sequence (P27361 whole entry): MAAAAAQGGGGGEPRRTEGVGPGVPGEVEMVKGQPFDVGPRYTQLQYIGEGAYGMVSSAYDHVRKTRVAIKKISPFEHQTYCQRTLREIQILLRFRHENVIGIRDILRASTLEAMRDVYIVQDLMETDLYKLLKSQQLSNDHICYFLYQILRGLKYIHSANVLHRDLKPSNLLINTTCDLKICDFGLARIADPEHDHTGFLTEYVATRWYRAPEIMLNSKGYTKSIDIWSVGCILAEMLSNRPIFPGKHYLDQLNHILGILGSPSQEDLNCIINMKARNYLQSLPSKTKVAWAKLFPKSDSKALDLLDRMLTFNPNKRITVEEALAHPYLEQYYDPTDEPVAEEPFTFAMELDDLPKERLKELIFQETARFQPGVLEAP
MEASURE: IC50 (nM)
Write the number in nM without appending the unit.

Req: May I ask what IC50 has been recorded for O=C(c1ccc(Oc2ccccc2)cc1Cl)c1c[nH]c2ncnc(N[C@@H]3CC[C@@H](CO)OC3)c12 [nemtabrutinib] ?
Resp: 543

====

biological target: B-RAF [V600E] (Homo sapiens, UniProt P15056, V600E); assay: Kinase enzyme activity assay at 1 mmol/L ATP (Carna)
MEASURE: pIC50
Field pIC50 (float): negative decimal logarithm of the concentration in molar.

Req: May I ask what pIC50 has been recorded for "O=C(c1ccc(Oc2ccccc2)cc1Cl)c1c[nH]c2ncnc(N[C@@H]3CC[C@@H](CO)OC3)c12" ?
Resp: 6.66

====

Provide the reported Percentage inhibition of kinase enzyme activity of each item.
biological target: MUSK (Homo sapiens, UniProt O15146); construct: purchased Carna Biosciences; assay: Kinase panel profiling at 1 µmol/L (mobility shift assay, Carna); type: biochemical; conditions: 1 µmol/L of BTK inhibitor
Sequence (O15146 24-869): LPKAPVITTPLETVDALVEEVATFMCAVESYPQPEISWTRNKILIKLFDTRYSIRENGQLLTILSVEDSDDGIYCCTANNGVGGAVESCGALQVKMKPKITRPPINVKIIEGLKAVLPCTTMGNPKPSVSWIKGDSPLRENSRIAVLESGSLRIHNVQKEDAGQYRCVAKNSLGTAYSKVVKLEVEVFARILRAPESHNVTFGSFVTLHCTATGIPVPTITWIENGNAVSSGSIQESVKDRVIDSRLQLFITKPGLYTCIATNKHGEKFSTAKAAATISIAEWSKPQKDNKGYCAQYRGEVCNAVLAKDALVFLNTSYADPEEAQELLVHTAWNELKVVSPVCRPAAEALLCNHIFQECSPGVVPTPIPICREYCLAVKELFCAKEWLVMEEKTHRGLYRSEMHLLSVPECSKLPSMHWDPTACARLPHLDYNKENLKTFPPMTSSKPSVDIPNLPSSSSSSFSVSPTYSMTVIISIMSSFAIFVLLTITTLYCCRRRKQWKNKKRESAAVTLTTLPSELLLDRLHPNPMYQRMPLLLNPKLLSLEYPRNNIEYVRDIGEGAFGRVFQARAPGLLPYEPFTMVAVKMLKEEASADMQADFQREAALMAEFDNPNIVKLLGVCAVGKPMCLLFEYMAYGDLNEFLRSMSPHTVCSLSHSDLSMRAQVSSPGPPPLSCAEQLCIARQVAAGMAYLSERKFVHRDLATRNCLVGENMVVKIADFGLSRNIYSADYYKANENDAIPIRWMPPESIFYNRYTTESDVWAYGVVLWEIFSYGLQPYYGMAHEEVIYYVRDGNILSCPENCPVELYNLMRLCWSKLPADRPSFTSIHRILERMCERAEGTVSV
Answer with the value and then the unit.

Req: May I ask what Percentage inhibition of kinase enzyme activity has been recorded for C=CC(=O)N1CCC[C@@H](n2nc(-c3ccc(Oc4ccccc4)cc3)c3c(N)ncnc32)C1 [ibrutinib] ?
Resp: 1.76%

Req: May I ask what Percentage inhibition of kinase enzyme activity has been recorded for CC#CC(=O)N1CCC[C@H]1c1nc(-c2ccc(C(=O)Nc3ccccn3)cc2)c2c(N)nccn12 [acalabrutinib] ?
Resp: -0.58%

Req: May I ask what Percentage inhibition of kinase enzyme activity has been recorded for O=C(c1ccc(Oc2ccccc2)cc1Cl)c1c[nH]c2ncnc(N[C@@H]3CC[C@@H](CO)OC3)c12 [nemtabrutinib] ?
Resp: 100.11%

Req: May I ask what Percentage inhibition of kinase enzyme activity has been recorded for COc1ccc(F)cc1C(=O)NCc1ccc(-c2nn([C@@H](C)C(F)(F)F)c(N)c2C(N)=O)cc1 [pirtobrutinib] ?
Resp: 1.20%

Req: May I ask what Percentage inhibition of kinase enzyme activity has been recorded for C=CC(=O)N1CCC([C@@H]2CCNc3c(C(N)=O)c(-c4ccc(Oc5ccccc5)cc4)nn32)CC1 [zanubrutinib] ?
Resp: 11.33%

====

target: PKCθ (Homo sapiens); construct: purchased Carna Biosciences; experiment: Kinase panel profiling at 1 µmol/L (mobility shift assay, Carna); format: biochemical; details: 1 µmol/L of BTK inhibitor
Sequence (Q04759 whole entry): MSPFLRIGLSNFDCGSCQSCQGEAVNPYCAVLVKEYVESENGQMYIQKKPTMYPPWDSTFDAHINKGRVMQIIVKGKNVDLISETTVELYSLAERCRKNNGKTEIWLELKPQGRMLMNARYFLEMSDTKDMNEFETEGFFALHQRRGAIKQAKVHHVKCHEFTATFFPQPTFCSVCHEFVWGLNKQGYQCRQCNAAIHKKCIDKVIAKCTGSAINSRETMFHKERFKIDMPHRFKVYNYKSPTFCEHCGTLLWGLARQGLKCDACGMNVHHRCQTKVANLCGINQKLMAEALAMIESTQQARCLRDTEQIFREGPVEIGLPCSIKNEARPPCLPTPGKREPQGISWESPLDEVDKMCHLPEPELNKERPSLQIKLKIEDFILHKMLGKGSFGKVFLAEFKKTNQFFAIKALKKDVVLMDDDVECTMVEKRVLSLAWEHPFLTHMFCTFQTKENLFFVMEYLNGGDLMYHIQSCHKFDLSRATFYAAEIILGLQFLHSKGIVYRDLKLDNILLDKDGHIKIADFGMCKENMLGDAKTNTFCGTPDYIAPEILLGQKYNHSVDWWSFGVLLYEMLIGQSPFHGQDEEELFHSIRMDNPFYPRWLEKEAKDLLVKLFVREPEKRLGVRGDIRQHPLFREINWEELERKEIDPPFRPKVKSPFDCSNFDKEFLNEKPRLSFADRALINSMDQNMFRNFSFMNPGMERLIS
Provide the reported Percentage inhibition of kinase enzyme activity of each item.
Write the number in % without appending the unit.

Req: May I ask what Percentage inhibition of kinase enzyme activity has been recorded for COc1ccc(F)cc1C(=O)NCc1ccc(-c2nn([C@@H](C)C(F)(F)F)c(N)c2C(N)=O)cc1 [pirtobrutinib] ?
Resp: 4.94

Req: May I ask what Percentage inhibition of kinase enzyme activity has been recorded for CC#CC(=O)N1CCC[C@H]1c1nc(-c2ccc(C(=O)Nc3ccccn3)cc2)c2c(N)nccn12 [acalabrutinib] ?
Resp: -8.13

Req: May I ask what Percentage inhibition of kinase enzyme activity has been recorded for C=CC(=O)N1CCC[C@@H](n2nc(-c3ccc(Oc4ccccc4)cc3)c3c(N)ncnc32)C1 [ibrutinib] ?
Resp: -1.13

Req: May I ask what Percentage inhibition of kinase enzyme activity has been recorded for O=C(c1ccc(Oc2ccccc2)cc1Cl)c1c[nH]c2ncnc(N[C@@H]3CC[C@@H](CO)OC3)c12 [nemtabrutinib] ?
Resp: -0.21
